Property: Percent inhibition BROTE; scope: individual compounds
# System: BROTE (downy brome)
# Measurement notes: Pre-plant incorporated (PPI) herbicidal activity, cool season
# Assay type: in vivo, Bromus tectorum
# Assay setup: weed, PPI application, 300 g/ha
The answer is to be given in %; state only the numeric part.

Some solved entries appear below for comparison.
Structure smiles string | Percent inhibition BROTE (%)
CCN(CC)C(=O)n1cnc(S(=O)(=O)C(F)(F)SC)n1 | 20
CCN(CC)C(=O)n1cnc(S(=O)(=O)C(F)(F)C(F)(F)Br)n1 | 85
C=C(CC(F)(F)S(=O)(=O)c1ncn(C(=O)N(CC)CC)n1)C[Si](C)(C)C | 40

Give its Percent inhibition BROTE value. Item: `CCN(CC)C(=O)n1cnc(S(=O)(=O)C(F)(F)SCCOC)n1` 20

Can you check `CCN(CC)C(=O)n1cnc(S(=O)(=O)C(F)(F)F)n1` next? 50

Can you check `CCN(CC)C(=O)n1cnc(S(=O)(=O)C(F)(F)C(F)F)n1` next? 40

Can you check `CCN(CC)C(=O)n1cnc(S(=O)(=O)C(F)(F)Cl)n1` next? 90

Can you check `CCN(CC)C(=O)n1cnc(S(=O)(=O)C(F)(F)SCc2ccccc2)n1` next? 35

Can you check `CCN(CC)C(=O)n1cnc(S(=O)(=O)C(F)(F)SCC(=O)OC)n1` next? 0

----------
# System: SASKR (russian thistle)
# Measurement notes: Pre-plant incorporated (PPI) herbicidal activity, cool season
# Format: in vivo, Salsola kali
# Assay setup: pre-plant incorporated; lowest tested rate with 80% or greater inhibition; about 14 days
Measurement kind: PPI activity GR80, SASKR (g/ha)
The answer is to be given in g/ha; state only the numeric part.

Some solved entries appear below for comparison.
Compound | Target under test | Unit text | Observed result
C=CCC(F)(F)S(=O)(=O)c1ncn(C(=O)N(CC)CC)n1 [Example 17] | SASKR (russian thistle) | g/ha | 30
CCSC(F)(F)S(=O)(=O)c1ncn(C(=O)N(CC)CC)n1 [Example 8] | SASKR (russian thistle) | g/ha | 100

Give its PPI activity GR80, SASKR value. Item: C=C(Br)CC(F)(F)S(=O)(=O)c1ncn(C(=O)N(CC)CC)n1 [Example 19] 30

Can you check CCN(CC)C(=O)n1cnc(S(=O)(=O)C(F)(F)C(=O)c2ccccc2)n1 [Example 6] next? 300

----------
# Tested on: DIGSA (large crabgrass)
# Measurement notes: Pre-plant incorporated (PPI) herbicidal activity, warm season
# Type: in vivo, Digitaria sanguinalis
# Assay setup: Digitaria sanguinalis; PPI application, 30 g/ha; read-out: Percent inhibition DIGSA
Decision: inhibition at 30 g/ha compared against 80%; not below it gives condition met, below it gives condition not met.

Compound | Assigned class
CCN(CC)C(=O)n1cnc(S(=O)(=O)C(F)(F)Br)n1 [Example 1] | condition met
CCSC(F)(F)S(=O)(=O)c1ncn(C(=O)N(CC)CC)n1 [Example 8] | condition met
CCN(CC)C(=O)n1cnc(S(=O)(=O)C(F)F)n1 [Example 15] | condition not met

Now consider the entry below.
Form field: inhibition at 30 g/ha at least 80%? Entry: C=C(Br)CC(F)(F)S(=O)(=O)c1ncn(C(=O)N(CC)CC)n1 [Example 19] condition not met

----------
# System: PANMI (wild proso millet)
# Measurement notes: Pre-emergence herbicidal activity, warm season
# Format: in vivo, Panicum miliaceum
# Assay setup: GR80 = lowest tested rate (300, 100, 30, 10 g/ha) with 80% or greater inhibition; approx. 14 days after treating; 30/21° C.
Property: Pre-emergence activity (GR80) PANMI; scope: individual compounds
The answer is to be given in g/ha; state only the numeric part.

Compound | Pre-emergence activity (GR80) PANMI [g/ha]
CCN(CC)C(=O)n1cnc(S(=O)(=O)C(F)(F)C(=O)c2ccccc2)n1 | 300

Give its Pre-emergence activity (GR80) PANMI value. Item: `COCCN(C)C(=O)n1cnc(S(=O)(=O)C(F)(F)C(F)(F)Br)n1` 100

Can you check `CCSC(F)(F)S(=O)(=O)c1ncn(C(=O)N(C)c2ccccc2)n1` next? 300

Can you check `CN(C(=O)n1cnc(S(=O)(=O)C(F)(F)C(F)F)n1)C1CCCCC1` next? 100

Can you check `CCN(CC)C(=S)n1cnc(S(=O)(=O)C(F)(F)Cl)n1` next? 100

Can you check `CCN(CC)C(=O)n1cnc(S(=O)(=O)C(F)(F)SC)n1` next? 100

----------
# System: POAAN (annual bluegrass)
# Measurement notes: Pre-plant incorporated (PPI) herbicidal activity, cool season
# Type: in vivo, Poa annua
# Assay setup: Poa annua; weed, PPI application, 30 g/ha; read-out: Percent inhibition POAAN
Property: inhibition at 30 g/ha; scope: individual molecules
The answer is to be given in %; state only the numeric part.

Some solved entries appear below for comparison.
Structure smiles string | Target under test | Unit text | inhibition at 30 g/ha
C=C(Br)CC(F)(F)S(=O)(=O)c1ncn(C(=O)N(CC)CC)n1 | POAAN (annual bluegrass) | % | 0
C=C(C)CC(F)(F)S(=O)(=O)c1ncn(C(=O)N(CC)CC)n1 | POAAN (annual bluegrass) | % | 50
CCSC(F)(F)S(=O)(=O)c1ncn(C(=O)N(CC)CC)n1 | POAAN (annual bluegrass) | % | 100
C=CCC(F)(F)S(=O)(=O)c1ncn(C(=O)N(CC)CC)n1 | POAAN (annual bluegrass) | % | 60

Give its inhibition at 30 g/ha value. Item: `CCN(CC)C(=O)n1cnc(S(=O)(=O)C(F)(F)Br)n1` 90

----------
# Test system: SETFA (giant foxtail)
# Measurement notes: Pre-plant incorporated (PPI) herbicidal activity, warm season
# Assay type: in vivo, Setaria faberi
# Assay setup: PPI application, 10 g/ha
Measurement kind: Percent inhibition SETFA (%)
The answer is to be given in %; state only the numeric part.

Some solved entries appear below for comparison.
Molecule | Unit text | Observed result
CCN(CC)C(=O)n1cnc(S(=O)(=O)C(F)(F)SCc2ccccc2)n1 [Example 10] | % | 0
C=C(CC(F)(F)S(=O)(=O)c1ncn(C(=O)N(CC)CC)n1)C[Si](C)(C)C [Example 20] | % | 0
CCN(CC)C(=O)n1cnc(S(=O)(=O)C(F)(F)SCCOC)n1 [Example 13] | % | 0
CCN(CC)C(=O)n1cnc(S(=O)(=O)C(F)(F)C(F)F)n1 [Example 16] | % | 80

# next molecule below
Give its Percent inhibition SETFA value. Item: CCN(CC)C(=O)n1cnc(S(=O)(=O)C(F)(F)SCC(=O)OC)n1 [Example 11] 0

----------
# System: AGRRE (quackgrass (seedling))
# Measurement notes: Pre-plant incorporated (PPI) herbicidal activity, cool season
# Assay type: in vivo, Elymus repens
# Assay setup: weed, PPI application, 100 g/ha
Decision: Percent inhibition AGRRE compared against 20%; not below it gives condition met, below it gives condition not met.

The following molecules have reported results that may help.
Structure smiles string | Target under test | Assigned class
CCN(CC)C(=O)n1cnc(S(=O)(=O)C(F)(F)SCc2ccccc2)n1 | AGRRE (quackgrass (seedling)) | condition not met
C=C(CC(F)(F)S(=O)(=O)c1ncn(C(=O)N(CC)CC)n1)C[Si](C)(C)C | AGRRE (quackgrass (seedling)) | condition met
CCN(CC)C(=O)n1cnc(S(=O)(=O)C(F)(F)Cl)n1 | AGRRE (quackgrass (seedling)) | condition met
CCN(CC)C(=O)n1cnc(S(=O)(=O)C(F)(F)F)n1 | AGRRE (quackgrass (seedling)) | condition not met
CCN(CC)C(=O)n1cnc(S(=O)(=O)C(F)(F)C(F)(F)Br)n1 | AGRRE (quackgrass (seedling)) | condition met
CCN(CC)C(=O)n1cnc(S(=O)(=O)C(F)(F)SCC(=O)OC)n1 | AGRRE (quackgrass (seedling)) | condition not met

Form field: Percent inhibition AGRRE at least 20%? Entry: `CCN(CC)C(=O)n1cnc(S(=O)(=O)C(F)(F)C(F)F)n1` condition not met

Can you check `CCN(CC)C(=O)n1cnc(S(=O)(=O)C(F)(F)SC)n1` next? condition met

----------
# System: PANMI (wild proso millet)
# Measurement notes: Pre-plant incorporated (PPI) herbicidal activity, warm season
# Assay type: in vivo, Panicum miliaceum
# Assay setup: PPI application, 100 g/ha
Measurement kind: Percent inhibition PANMI (%)
The answer is to be given in %; state only the numeric part.

Structure smiles string | Unit text | Observed result
CCN(CC)C(=O)n1cnc(S(=O)(=O)C(F)(F)C(F)F)n1 | % | 100
CCN(CC)C(=O)n1cnc(S(=O)(=O)C(F)(F)SCC(=O)OC)n1 | % | 20
CCN(CC)C(=O)n1cnc(S(=O)(=O)C(F)(F)SC)n1 | % | 80
CCN(CC)C(=O)n1cnc(S(=O)(=O)C(F)(F)SCc2ccccc2)n1 | % | 80

Give its Percent inhibition PANMI value. Item: `CCN(CC)C(=O)n1cnc(S(=O)(=O)C(F)(F)F)n1` 80

Can you check `CCN(CC)C(=O)n1cnc(S(=O)(=O)C(F)(F)Cl)n1` next? 100

Can you check `CCN(CC)C(=O)n1cnc(S(=O)(=O)C(F)(F)C(F)(F)Br)n1` next? 100

Can you check `CCN(CC)C(=O)n1cnc(S(=O)(=O)C(F)(F)SCCOC)n1` next? 70

Can you check `C=C(CC(F)(F)S(=O)(=O)c1ncn(C(=O)N(CC)CC)n1)C[Si](C)(C)C` next? 100
